# System: SGK3
# condition_parameters: concentration: 1 μM, replicates: in singlicate; n = 1;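 note: KINOMEscan kinase panel screen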
readout_label: %Inh (%)
The reply should be a number in %, with the unit left off.

Req: Identify measured %Inh associated with CC(=O)N1CCN(c2ccc(Nc3nccc(-c4sc(C(C)C)nc4-c4cccc(NS(=O)(=O)c5cccc(Cl)c5)c4)n3)cn2)CC1
Resp: 19

Req: Identify measured %Inh associated with c1ccc(-c2n[nH]cc2Nc2ccnc3ccccc23)nc1
Resp: 47

Req: Identify measured %Inh associated with CN1CCN(Cc2cccc(-c3ccc4c(Nc5ccc(Oc6ccccc6)cc5)ccnc4c3)c2)CC1
Resp: 1

Req: Identify measured %Inh associated with CC(C)(C)c1ccc2nccc(Nc3cccc(O)c3)c2c1
Resp: 0

Req: Identify measured %Inh associated with COc1cc(Nc2nccc(-c3c(-c4cccc(NC(=O)c5c(F)cccc5F)c4)nn4ccccc34)n2)cc(OC)c1OC
Resp: 7

Req: Identify measured %Inh associated with COc1cccc(C2=C(Nc3ccc(Cl)c(C(=O)O)c3)C(=O)NC2=O)c1
Resp: 100

Req: Identify measured %Inh associated with CN1CCN(CCCNc2nccc(-c3c(-c4ccc(F)cc4)nn4cc(C(F)(F)F)ccc34)n2)CC1
Resp: 0

Req: Identify measured %Inh associated with Fc1ccc(-c2ncn(C3CCNCC3)c2-c2ccnc(Oc3ccc(-c4ccccc4)cc3)n2)cc1
Resp: 12

Req: Identify measured %Inh associated with CCn1c(-c2nonc2N)nc2c(C#CC(C)(C)O)nc(OC[C@H](N)c3ccccc3)cc21
Resp: 0

Req: Identify measured %Inh associated with COCCOCCOc1cc2ncc3c4ccc(C#N)cc4[nH]c3c2cc1OC
Resp: 47

Req: Identify measured %Inh associated with c1ccc(Oc2ccc(Nc3ccnc4cc(-c5ccc(CNCCN6CCOCC6)o5)ccc34)cc2)nc1
Resp: 0

Req: Identify measured %Inh associated with Cl.NC(=O)c1cccc(Nc2nccc(Nc3ccc(Oc4c(Cl)cccc4Cl)c(Cl)c3)n2)c1
Resp: 0

Req: Identify measured %Inh associated with COc1cc(Nc2nccc(N3CCC(NC(=O)c4cc5ccccc5s4)C3)n2)cc(OC)c1OC (stereo not shown)
Resp: 10

Req: Identify measured %Inh associated with Nc1ncc(-c2cccnc2)c2scc(-c3ccc4c(c3)CCN4C(=O)Cc3ccccc3)c12
Resp: 10

Req: Identify measured %Inh associated with CN(c1ccc(NC(=O)Nc2cc(C(F)(F)F)ccc2F)cc1)c1ccnc(Nc2ccc(S(N)(=O)=O)cc2)n1
Resp: 22

Req: Identify measured %Inh associated with Cc1ccc(F)c(C(=O)Nc2cccc(-c3nn4ccccc4c3-c3ccnc(Nc4cccc(F)c4)n3)c2)c1F
Resp: 2

Req: Identify measured %Inh associated with COc1ccc(-c2coc3ccc(-c4nnc(SCc5ccc(OC)c(C(F)(F)F)c5)o4)cc23)cc1
Resp: 28

Req: Identify measured %Inh associated with COc1ccc(Nc2nccc(NCCNC(=O)c3cc4ccccc4s3)n2)cc1
Resp: 0

Req: Identify measured %Inh associated with c1ccc(-c2cnc3nccnn23)cc1
Resp: 0

Req: Identify measured %Inh associated with O=C(Nc1cccc(Oc2ccc3nc(NC(=O)C4CC4)cn3n2)c1)c1ccccc1C(F)(F)F
Resp: 0

Req: Identify measured %Inh associated with Cc1occc1-c1ncc(OC[C@@H](N)Cc2c[nH]c3ccccc23)cc1-c1ccc2[nH]nc(C)c2c1.O=C(O)C(F)(F)F
Resp: 20

Req: Identify measured %Inh associated with O=C(Nc1n[nH]c2cc(-c3ccoc3)ccc12)C1CC1
Resp: 28

Req: Identify measured %Inh associated with COC(=O)Nc1nc2cc(Oc3ccc(NC(=O)Nc4cc(C(F)(F)F)ccc4F)cn3)ccc2[nH]1.Cl.Cl
Resp: 6

Req: Identify measured %Inh associated with Oc1cc(Nc2ccnc3cc(I)ccc23)ccc1F
Resp: 1

Req: Identify measured %Inh associated with Nc1n[nH]c2cnc(-c3ccccc3)cc12
Resp: 74

Req: Identify measured %Inh associated with O=C(Nc1cccc(-c2nn3ccccc3c2-c2ccnc(Nc3cccc(C(F)(F)F)c3)n2)c1)c1c(F)cccc1F
Resp: 8

Req: Identify measured %Inh associated with Clc1ccc(-c2nn3ncccc3c2-c2ccnc(Nc3ccc4c(c3)OCCO4)n2)cc1
Resp: 0

Req: Identify measured %Inh associated with Nc1ncc(-c2ccc3nccc(-c4ccncc4)c3c2)cc1S(=O)(=O)N1CCOCC1
Resp: 7

Req: Identify measured %Inh associated with COc1cc(Nc2nccc(-c3c(-c4cccc(NC(=O)c5c(F)cccc5F)c4)nn4ncccc34)n2)cc(OC)c1OC
Resp: 1

Req: Identify measured %Inh associated with Nc1ncnc2c1nc(-c1ccccc1)n2-c1ccccc1
Resp: 16

Req: Identify measured %Inh associated with Cl.Cl.NCC(C(=O)Nc1cc(Br)c(-c2ccnc3[nH]ccc23)s1)c1ccccc1 (stereo not shown)
Resp: 24

====

# Tested on: DCAMKL2
# Construct: gene DCLK2
# condition_parameters: concentration: 1 μM, replicates: in singlicate; n = 1
Would you kindly list %Inh for each of these compounds?
The reply should be a number in %, with the unit left off.

Req: Identify measured %Inh associated with FC(F)(F)c1ccc(/C=C/c2cncnc2Nc2ccc3[nH]c(Cc4ccccc4)nc3c2)cc1 [GW709199]
Resp: 7

Req: Identify measured %Inh associated with O=C(Nc1cccc(-c2nn3ncccc3c2-c2ccnc(Nc3ccccc3)n2)c1)c1c(F)cccc1F [GSK198271]
Resp: 0

Req: Identify measured %Inh associated with Cc1ccc(F)c(C(=O)Nc2cccc(-c3nn4ccccc4c3-c3ccnc(Nc4cccc(F)c4)n3)c2)c1F [GSK361061]
Resp: 13

Req: Identify measured %Inh associated with Cc1ccc(C(=O)N2CC[C@@H](O)C2)cc1-n1c(C)cc(OCc2ccc(F)cc2F)c(Br)c1=O
Resp: 0

Req: Identify measured %Inh associated with COCCOCCOc1cc2ncc3c4ccc(C#N)cc4[nH]c3c2cc1OC
Resp: 14

Req: Identify measured %Inh associated with CCc1ccc(-c2ccc3c(c2)-c2c(cnn2C)S(=O)(=O)N3C)cc1
Resp: 0

Req: Identify measured %Inh associated with COc1ccc(Nc2nccc(NCCNC(=O)c3cc4ccccc4s3)n2)cc1 [GSK1379896]
Resp: 0

====

# System: PIK3CB
# condition_parameters: concentration: 1 μM, replicates: in singlicate; n = 1
Would you kindly list %Inh for each of these compounds?
Don't forget the unit after the value.

Req: Identify measured %Inh associated with c1ccc(-c2n[nH]cc2Nc2ccnc3ccccc23)nc1 [GW694077]
Resp: 0%

Req: Identify measured %Inh associated with O=C(Nc1n[nH]c2cc(-c3ccoc3)ccc12)C1CC1 [SB-738481]
Resp: 13%

Req: Identify measured %Inh associated with CC(=O)Nc1nc2cnc(Nc3cc(NC(=O)c4cccc(C5(C#N)CC5)c4Cl)ccc3C)nc2s1
Resp: 12%

Req: Identify measured %Inh associated with COC(=O)Nc1nc2cc(Oc3ccc(NC(=O)Nc4cc(C(F)(F)F)ccc4F)cn3)ccc2[nH]1.Cl.Cl [GW681170]
Resp: 5%

Req: Identify measured %Inh associated with COc1ccc(Nc2nccc(NCCNC(=O)c3cc4ccccc4s3)n2)cc1 [GSK1379896]
Resp: 32%

Req: Identify measured %Inh associated with CNC(=O)c1ccccc1Nc1nc(Nc2ccc(N3CCOCC3)cc2)ncc1Cl.Cl [GSK1576028]
Resp: 50%

Req: Identify measured %Inh associated with COc1cccc(-c2ccc3c(NC(=O)C4CC4)n[nH]c3n2)c1 [SB-710903]
Resp: 0%

Req: Identify measured %Inh associated with CC(=O)N1CCN(c2ccc(Nc3nccc(-c4sc(C(C)C)nc4-c4cccc(NS(=O)(=O)c5cccc(Cl)c5)c4)n3)cn2)CC1 [GSK1660437]
Resp: 13%

Req: Identify measured %Inh associated with COc1cc2c(cc1OCCN1CCNCC1)ncc1c3ccc(C#N)cc3[nH]c21
Resp: 0%

Req: Identify measured %Inh associated with Oc1cc(Nc2ccnc3cc(I)ccc23)ccc1F [GW552771]
Resp: 0%

Req: Identify measured %Inh associated with Nc1ncc(-c2cccnc2)c2scc(-c3ccc4c(c3)CCN4C(=O)Cc3ccccc3)c12 [GSK683281]
Resp: 0%

Req: Identify measured %Inh associated with COc1ccc(CNC(=O)NC2CCN(c3ccnc(Nc4ccc(F)cc4)n3)CC2)cc1 [GSK1379788]
Resp: 0%

Req: Identify measured %Inh associated with Cc1ccc(C)c(NC(=O)NC2CCN(c3ccnc(Nc4ccc(F)cc4)n3)C2)c1 (stereo not shown) [GSK1379720]
Resp: 0%

Req: Identify measured %Inh associated with Nc1ncc(-c2ccc3nccc(-c4ccncc4)c3c2)cc1S(=O)(=O)N1CCOCC1 [GSK1627798]
Resp: 77%

Req: Identify measured %Inh associated with O=C(Nc1cccc(-c2nn3ncccc3c2-c2ccnc(Nc3ccccc3)n2)c1)c1c(F)cccc1F [GSK198271]
Resp: 0%

Req: Identify measured %Inh associated with Cl.c1ccc(-c2ccc3c(Nc4ccc5[nH]ncc5c4)ccnc3c2)nc1 [GW440137]
Resp: 0%

Req: Identify measured %Inh associated with COCCOCCOc1cc2ncc3c4ccc(C#N)cc4[nH]c3c2cc1OC
Resp: 0%

Req: Identify measured %Inh associated with CN(c1ccc(NC(=O)Nc2cc(C(F)(F)F)ccc2F)cc1)c1ccnc(Nc2ccc(S(N)(=O)=O)cc2)n1 [GW809893]
Resp: 0%

Req: Identify measured %Inh associated with COc1cccc(C2=C(Nc3ccc(Cl)c(C(=O)O)c3)C(=O)NC2=O)c1 [SB-390769]
Resp: 93.3%

Req: Identify measured %Inh associated with c1ccc(-c2cnc3nccnn23)cc1 [AH20685]
Resp: 0%

Req: Identify measured %Inh associated with COc1cc(Nc2ncc3c(C)nc(-c4cc5ccccc5[nH]4)n3n2)cc(OC)c1OC [GW869516]
Resp: 0%

Req: Identify measured %Inh associated with COC(=O)Nc1nc2ccc(Oc3ccc(NC(=O)Nc4cc(C(F)(F)F)ccc4F)cc3)cc2n1C.Cl [GW692089]
Resp: 0%

Req: Identify measured %Inh associated with COc1ccc(-c2coc3ccc(-c4nnc(SCc5ccc(OC)c(C(F)(F)F)c5)o4)cc23)cc1
Resp: 27%

Req: Identify measured %Inh associated with CN(C)Cc1ccc(-c2ccc3c(Nc4ccc(Oc5ccccn5)cc4)ccnc3c2)o1 [GW567148]
Resp: 0%

Req: Identify measured %Inh associated with Cl.c1ccc(-c2ccc3c(Nc4ccc5[nH]ccc5c4)ccnc3c2)nc1 [GW440138]
Resp: 37%

Req: Identify measured %Inh associated with Nc1ncnc2c1nc(-c1ccccc1)n2-c1ccccc1 [SKF-97293]
Resp: 27%

Req: Identify measured %Inh associated with Clc1ccc(-c2nn3ncccc3c2-c2ccnc(Nc3ccc4c(c3)OCCO4)n2)cc1 [GW829116]
Resp: 0%

Req: Identify measured %Inh associated with O=C(Nc1cccc(Oc2ccc3nc(NC(=O)C4CC4)cn3n2)c1)c1ccccc1C(F)(F)F
Resp: 0%

Req: Identify measured %Inh associated with Cn1cc(-c2ccc3c(c2)CCN3C(=O)Cc2cccc(F)c2)c2c(N)ncnc21 [GSK2603358]
Resp: 0%

Req: Identify measured %Inh associated with Cc1occc1-c1ncc(OC[C@@H](N)Cc2c[nH]c3ccccc23)cc1-c1ccc2[nH]nc(C)c2c1.O=C(O)C(F)(F)F [GSK682037]
Resp: 0%

Req: Identify measured %Inh associated with O=C(Nc1cccc(-c2nn3ccccc3c2-c2ccnc(Nc3cccc(F)c3)n2)c1)c1c(F)ccc(F)c1Cl [GSK357952]
Resp: 0%
